# experimental-system: cGMP-inhibited 3',5'-cyclic phosphodiesterase 3A (Homo sapiens)
# Sequence (Q14432 whole entry): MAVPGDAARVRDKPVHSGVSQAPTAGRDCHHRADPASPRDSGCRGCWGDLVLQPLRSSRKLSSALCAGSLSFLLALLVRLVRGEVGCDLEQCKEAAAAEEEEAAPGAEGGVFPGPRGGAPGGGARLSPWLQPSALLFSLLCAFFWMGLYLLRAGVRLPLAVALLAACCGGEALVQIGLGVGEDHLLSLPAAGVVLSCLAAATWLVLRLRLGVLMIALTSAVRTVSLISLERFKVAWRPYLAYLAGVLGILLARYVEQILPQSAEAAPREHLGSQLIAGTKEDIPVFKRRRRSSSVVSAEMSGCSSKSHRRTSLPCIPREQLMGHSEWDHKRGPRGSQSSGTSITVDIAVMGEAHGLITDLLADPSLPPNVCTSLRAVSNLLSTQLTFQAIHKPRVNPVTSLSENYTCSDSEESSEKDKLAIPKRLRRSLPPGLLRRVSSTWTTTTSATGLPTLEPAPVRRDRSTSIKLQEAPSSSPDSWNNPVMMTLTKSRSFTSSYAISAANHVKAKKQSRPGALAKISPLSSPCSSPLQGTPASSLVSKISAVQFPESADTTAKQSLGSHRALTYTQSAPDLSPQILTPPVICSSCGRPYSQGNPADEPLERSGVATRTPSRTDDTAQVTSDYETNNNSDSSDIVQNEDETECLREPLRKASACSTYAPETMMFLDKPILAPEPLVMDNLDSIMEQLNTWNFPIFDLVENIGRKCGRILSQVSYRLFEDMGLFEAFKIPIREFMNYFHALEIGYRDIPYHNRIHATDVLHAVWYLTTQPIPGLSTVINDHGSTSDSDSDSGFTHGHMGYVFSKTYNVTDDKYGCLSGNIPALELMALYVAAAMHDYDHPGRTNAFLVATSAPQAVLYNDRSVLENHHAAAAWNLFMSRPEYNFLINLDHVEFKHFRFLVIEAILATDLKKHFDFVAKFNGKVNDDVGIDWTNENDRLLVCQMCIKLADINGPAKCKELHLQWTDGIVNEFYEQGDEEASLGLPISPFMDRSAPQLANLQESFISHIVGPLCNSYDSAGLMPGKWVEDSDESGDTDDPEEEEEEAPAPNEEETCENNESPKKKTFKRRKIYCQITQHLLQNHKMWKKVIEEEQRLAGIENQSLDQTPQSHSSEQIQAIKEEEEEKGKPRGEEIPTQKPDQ
# test-summary: Inhibition of human PDE3A at 10 uM by HTRF assay
metric: inhibition (%)

{"entry-smiles": "COc1ccc(-c2c(OCc3ccccc3)ccc3c(=O)nc(N4CCOCC4)oc23)cc1", "result-unit": "%", "recorded-measurement": 2.8}
{"entry-smiles": "O=c1nc(N2CCOCC2)oc2c(-c3ccccc3)c(OCCBr)ccc12", "result-unit": "%", "recorded-measurement": 24}
{"entry-smiles": "O=c1nc(N2CCOCC2)oc2c(-c3ccc(Cl)cc3)c(OCc3ccccc3)ccc12", "result-unit": "%", "recorded-measurement": 31.4}
{"entry-smiles": "O=c1nc(N2CCOCC2)oc2c(-c3ccccc3)c(OCc3ccccc3)ccc12", "result-unit": "%", "recorded-measurement": 24}
{"entry-smiles": "COc1ccc(-c2c(OCc3cccnc3)ccc3c(=O)nc(N4CCOCC4)oc23)cc1", "result-unit": "%", "recorded-measurement": 29.8}
